Molecular target: hGLP-1R (Homo sapiens)
Test: cell-based or functional assay
property.measured: cAMP Emax (1.0% HSA) (%)
Answer with a number only, understood to be in %.

Worked examples follow.
Y-Aib-EGT-αMeF(2F)-TSD-4Pal-SI-αMeL-LD-Orn-K((2-[2-(2-Amino-ethoxy)-ethoxy]-acetyl)2-(γ-Glu)-CO-(CH2)12-CO2H)AQ-Aib-EFI-(D-Glu)-αMeY-LIEGGK((2-[2-(2-Amino-ethoxy)-ethoxy]-acetyl)2-(γ-Glu)-CO-(CH2)12-CO2H)SSG-NH2 (peptide) = 97.3
Y-Aib-EGT-αMeF(2F)-TSD-4Pal-SI-αMeL-LD-Orn-K((2-[2-(2-Amino-ethoxy)-ethoxy]-acetyl)2-(εK)-CO-(CH2)12-CO2H)AQ-Aib-EFI-(D-Glu)-αMeY-LIEGGK((2-[2-(2-Amino-ethoxy)-ethoxy]-acetyl)2-(εK)-CO-(CH2)12-CO2H)-NH2 (peptide) = 103
Y-Aib-EGT-αMeF(2F)-TSD-4Pal-SI-αMeL-LD-Orn-K((2-[2-(2-Amino-ethoxy)-ethoxy]-acetyl)2-(γ-Glu)-CO-(CH2)12-CO2H)AQ-Aib-EFI-(D-Glu)-αMeY-LIEGGK((2-[2-(2-Amino-ethoxy)-ethoxy]-acetyl)2-(γ-Glu)-CO-(CH2)12-CO2H)-NH2 (peptide) = 87.8
Y-Aib-EGT-αMeF(2F)-TSD-4Pal-SI-αMeL-LD-Orn-K((εK)-(γ-Glu)-CO-(CH2)12-CO2H)AQ-Aib-EFI-(D-Glu)-αMeY-LIEGGK((εK)-(γ-Glu)-CO-(CH2)12-CO2H)-NH2 (peptide) = 107
Y-Aib-EGT-αMeF(2F)-TSD-4Pal-SI-αMeL-LD-Orn-K((2-[2-(2-Amino-ethoxy)-ethoxy]-acetyl)2-(γ-Glu)-CO-(CH2)12-CO2H)AQ-Aib-EFI-(D-Glu)-αMeY-LIEGGK((2-[2-(2-Amino-ethoxy)-ethoxy]-acetyl)2-(γ-Glu)-CO-(CH2)12-CO2H)SSG-Orn-PPP-Orn-NH2 (peptide) = 102

Problem: Fill in: cAMP Emax (1.0% HSA) of Y-Aib-EGT-αMeF(2F)-TSD-4Pal-SI-αMeL-LD-Orn-K((εK)-(εK)-(γ-Glu)-CO-(CH2)12-CO2H)AQ-Aib-EFI-(D-Glu)-αMeY-LIEGGK((εK)-(εK)-(γ-Glu)-CO-(CH2)12-CO2H)-NH2 (peptide) is ___
Result: 109

Problem: Fill in: cAMP Emax (1.0% HSA) of Y-Aib-EGT-αMeF(2F)-TSD-4Pal-SI-αMeL-LD-Orn-K((2-[2-(2-Amino-ethoxy)-ethoxy]-acetyl)2-(γ-Glu)-CO-(CH2)12-CO2H)AQ-Aib-EFI-(D-Glu)-αMeY-LIEGGK((2-[2-(2-Amino-ethoxy)-ethoxy]-acetyl)2-(γ-Glu)-CO-(CH2)12-CO2H)SSG-Orn-PPPS-NH2 (peptide) is ___
Result: 98.2
